assayProcedure: self-splicing fitness, log relative to wild type (ln ratio); higher = more splicing; Tetrahymena group I intron in knt gene, E. coli kanamycin selection, DiMSum; sequences stand for … in CUCUCU…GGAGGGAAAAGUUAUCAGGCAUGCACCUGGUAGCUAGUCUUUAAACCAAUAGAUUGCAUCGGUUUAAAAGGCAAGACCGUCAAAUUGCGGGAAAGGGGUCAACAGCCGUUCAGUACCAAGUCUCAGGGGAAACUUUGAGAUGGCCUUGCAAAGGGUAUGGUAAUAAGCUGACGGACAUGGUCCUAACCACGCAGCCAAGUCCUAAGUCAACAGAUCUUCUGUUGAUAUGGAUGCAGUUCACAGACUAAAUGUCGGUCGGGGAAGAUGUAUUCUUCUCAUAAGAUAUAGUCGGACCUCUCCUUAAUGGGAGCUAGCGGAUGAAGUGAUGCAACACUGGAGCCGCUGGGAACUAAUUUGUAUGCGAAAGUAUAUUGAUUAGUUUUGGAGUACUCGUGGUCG;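 further: selection with 25 µg/mL kanamycin versus none on LB agar overnight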
conditionsUsed: 30 °C
Dear colleague, classification is by self-splicing fitness (ln), with ranges listed here: class A: < -3; class B: ≥ -3 and < -2; class C: ≥ -2

Study these solved cases before continuing.
Qu. Hi there! Could you help me figure out the category for CCGUAGCAAUAUUACGAAGG please?
Ans. class A

Qu. Hi there! Could you help me figure out the category for AAGGAGCAAUAUUACGUGUU please?
Ans. class A

Qu. Hi there! Could you help me figure out the category for GCGGAGCAAUAUUACGACAG please?
Ans. class A

Qu. Hi there! Could you help me figure out the category for CCUUAGCAAUAUUACGACGU please?
Ans. class B

Qu. Hi there! Could you help me figure out the category for AAUAAGCAAUAUUACGACUG please?
Ans. class C

***
Qu. Hi there! Could you help me figure out the category for UGUAAGCAAUAUUACGGAUU please?
Ans. class B

Qu. Hi there! Could you help me figure out the category for GGUAAGCAAUAUUACGUAUG please?
Ans. class A

Qu. Hi there! Could you help me figure out the category for UGCAAGCAAUAUUACGACCU please?
Ans. class C

Qu. Hi there! Could you help me figure out the category for UGGAAGCAAUAUUACGUUUC please?
Ans. class B

Qu. Hi there! Could you help me figure out the category for GAGCAGCAAUAUUACGAUAU please?
Ans. class B

Qu. Hi there! Could you help me figure out the category for UCGCAGCAAUAUUACGGUAA please?
Ans. class C

Qu. Hi there! Could you help me figure out the category for CGUUAGCAAUAUUACGCGGG please?
Ans. class A

Qu. Hi there! Could you help me figure out the category for GCUUAGCAAUAUUACGGAUG please?
Ans. class C

Qu. Hi there! Could you help me figure out the category for AUCUAGCAAUAUUACGACUU please?
Ans. class C

Qu. Hi there! Could you help me figure out the category for UUUUAGCAAUAUUACGCCAA please?
Ans. class B
